# Experimental system: T1, human α11 expressed on CHO-K1 cells (human, UniProt Q9UKX5 23-1188)
# T1 sequence (Q9UKX5 whole entry, looked up): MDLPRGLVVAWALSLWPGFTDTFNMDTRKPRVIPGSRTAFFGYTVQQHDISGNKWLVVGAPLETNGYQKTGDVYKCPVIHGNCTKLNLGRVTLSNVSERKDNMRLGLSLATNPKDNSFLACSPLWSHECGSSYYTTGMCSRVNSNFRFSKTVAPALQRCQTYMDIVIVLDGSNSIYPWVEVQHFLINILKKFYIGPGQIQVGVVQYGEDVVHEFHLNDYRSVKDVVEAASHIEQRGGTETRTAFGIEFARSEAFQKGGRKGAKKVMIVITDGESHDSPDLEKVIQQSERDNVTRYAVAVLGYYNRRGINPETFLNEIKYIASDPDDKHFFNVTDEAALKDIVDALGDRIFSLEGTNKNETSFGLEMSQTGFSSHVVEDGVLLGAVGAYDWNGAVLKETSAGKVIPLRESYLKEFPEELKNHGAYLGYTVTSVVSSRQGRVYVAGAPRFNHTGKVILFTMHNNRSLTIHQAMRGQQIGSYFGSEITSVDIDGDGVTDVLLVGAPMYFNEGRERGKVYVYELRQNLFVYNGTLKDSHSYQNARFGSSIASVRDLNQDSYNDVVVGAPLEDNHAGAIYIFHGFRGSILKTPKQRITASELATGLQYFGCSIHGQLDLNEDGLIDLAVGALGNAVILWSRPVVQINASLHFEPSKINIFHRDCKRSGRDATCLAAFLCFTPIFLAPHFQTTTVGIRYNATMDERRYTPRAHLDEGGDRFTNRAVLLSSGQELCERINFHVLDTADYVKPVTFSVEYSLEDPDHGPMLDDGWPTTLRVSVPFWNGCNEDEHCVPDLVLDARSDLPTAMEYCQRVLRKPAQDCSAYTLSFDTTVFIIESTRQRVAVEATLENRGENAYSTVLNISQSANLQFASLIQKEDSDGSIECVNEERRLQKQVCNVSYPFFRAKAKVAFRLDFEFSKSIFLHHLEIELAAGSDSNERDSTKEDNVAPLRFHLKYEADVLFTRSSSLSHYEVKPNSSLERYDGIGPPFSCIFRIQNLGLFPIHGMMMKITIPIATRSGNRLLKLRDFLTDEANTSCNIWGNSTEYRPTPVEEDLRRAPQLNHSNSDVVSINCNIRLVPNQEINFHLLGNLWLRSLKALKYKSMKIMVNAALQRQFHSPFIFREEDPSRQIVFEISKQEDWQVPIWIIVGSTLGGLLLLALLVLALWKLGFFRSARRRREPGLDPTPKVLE
# Assay comment: cell-based or functional assay
Readout kind: IC50 (read off the curve), inhibition of cell adhesion to type I collagen

Binder	Value
1994-01-C7 variant 60 (antibody, V domains shown) VH: QVQLVQSGAEVKKPGASVKVSCKASGYTFTSYGISWVRQAPGQGLEWMGWISAYNSNTNYAQKLQGRVTMTTDTSTSTAYMELRSLRSDDTAAYYCARVTGITGTTIGPWGQGTMVTVSS VL: DIQMTQSPSSLSASVGDRVTITCRASQSISSYLNWYQQKPGKAPKLLIYDASSLESGVPSRFSGSGSGTEFTLTISSLQPDDFAVYYCQQYNNWPQTFGQGTKVEIK	~0.6 µg/mL
1994-01-C7 variant 54 (antibody, V domains shown) VH: QVQLVQSGAEVKKPGASVKVSCKASGYTFTSYGISWVRQAPGQGLEWMGWISAYNANTNYAQKLQGRVTMTTDTSTSTAYMELRSLRSDDTAAYYCARVTGITGTTIGPWGQGTMVTVSS VL: DIQMTQSPSSLSASVGDRVTITCRASQSISSYLNWYQQKPGKAPKLLIYDASSLESGVPSRFSGSGSGTEFTLTISSLQPDDFAVYYCQQYNNWPQTFGQGTKVEIK	~0.6 µg/mL
1994-01-C7 (antibody, V domains shown, Fully human, from phage display (scFv converted to IgG); also called 1994-01-C7 (#9); 1994-01-C07) VH: QVQLVQSGAEVKKPGASVKVSCKASGYTFTSYGISWVRQAPGQGLEWMGWISAYNGNTNYAQKLQGRVTMTTDTSTSTAYMELRSLRSDDTAAYYCARVTGITGTTIDPWGQGTMVTVSS VL: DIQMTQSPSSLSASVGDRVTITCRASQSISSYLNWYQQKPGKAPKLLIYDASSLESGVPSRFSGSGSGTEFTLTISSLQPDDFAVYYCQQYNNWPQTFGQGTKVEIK	~0.5 µg/mL

Now for another entry.
Reported IC50 (read off the curve), inhibition of cell adhesion to type I collagen for 1994-01-C7 variant 58 (antibody, V domains shown) VH: QVQLVQSGAEVKKPGASVKVSCKASGYTFTSYGISWVRQAPGQGLEWMGWISAYNANVNYAQKLQGRVTMTTDTSTSTAYMELRSLRSDDTAAYYCARVTGITGTTIGPWGQGTMVTVSS VL: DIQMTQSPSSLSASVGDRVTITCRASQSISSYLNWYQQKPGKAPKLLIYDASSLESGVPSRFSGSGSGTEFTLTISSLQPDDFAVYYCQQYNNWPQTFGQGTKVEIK : what is it? ~0.5 µg/mL
